# Tested on: ICS
# measurement_notes: qHTS profiling for inhibitors of Plasmodium falciparum proliferation (AID 504749); also: nearly all actives have a fitted effect of over 60% in size
# experimental_context: P. falciparum in erythrocytes, SYBR Green DNA, 72 h; series mostly up to 28.7 µM
Inconclusive results are not listed. Calls of active or inactive are those of the source. Calls follow the shape of the dose curve; as a rule, active = well fitted inhibition curve with a large enough effect; inconclusive = small, poorly fitted or top-dose-only effect; inactive = flat fitted curve, though single readings scatter.
Could you please pick one outcome from this set? 1.0 = active, 0.0 = inactive

In: # outcome recorded in this test, key = CCC(C)[C@@H](N)C(=O)O (stereo partly drawn)
Out: 0.0

In: # outcome recorded in this test, key = `OCc1ccccc1`
Out: 1.0

In: # outcome recorded in this test, key = `S=C1SCN(Cc2ccccc2)CN1Cc1ccccc1`
Out: 0.0
